test: Tmax in Sprague-Dawley rat plasma at 3 mg/kg, sc measured upto 8 hrs by LC-MS/MS analysis; assay type: ADME, organism-based
Measured Tmax values are reported for all entries that follow.
State just the number; it will be interpreted in min.

STRUCTURE AS SMILES	READING UNIT	REPORTED RESULT
CC(C)[C@H]1CC[C@@H](N2CCC(n3ccc4ccccc43)CC2)CC1	min	60

Could you tell me which Tmax is on file for `CC(C)[C@H]1CC[C@@H](N2CCC(N3CCc4ccccc43)CC2)CC1` ?
30

Could you tell me which Tmax is on file for `CC(C)[C@H]1CC[C@@H](N2CCC(n3cc(CN)c4ccccc43)CC2)CC1` ?
30

* * *

assay: Apparent permeability across basolateral to apical side in human Caco2 cells by HPLC-MS/MS analysis; type: ADME, cell-based; conditions: Caco-2
PROPERTY MEASURED: Papp B→A (×10⁻⁶ cm/s)
State just the number; it will be interpreted in ×10⁻⁶ cm/s.

STRUCTURE AS SMILES	REPORTED RESULT
CC(C)[C@H]1CC[C@@H](N2CCC(n3cc(CN)c4ccccc43)CC2)CC1	4.92

Could you tell me which Papp B→A is on file for `CC(C)[C@H]1CC[C@@H](N2CCC(N3CCc4ccccc43)CC2)CC1` ?
25

Could you tell me which Papp B→A is on file for `CC(C)[C@H]1CC[C@@H](N2CCC(n3cc(CCN)c4ccccc43)CC2)CC1.Cl.Cl` ?
6.49

Could you tell me which Papp B→A is on file for `CC(C)[C@H]1CC[C@@H](N2CCC(n3ccc4ccccc43)CC2)CC1` ?
19.1

* * *

test: Stability in human liver microsomes assessed as half life at 1 uM incubated for 60 mins by LC-MS/MS analysis; format: ADME, Microsome
PROPERTY MEASURED: half-life at 1 µM (min)
State just the number; it will be interpreted in min.

Could you tell me which half-life at 1 µM is on file for `CC(C)[C@H]1CC[C@@H](N2CCC(n3ccc4ccccc43)CC2)CC1` ?
5.3

* * *

assay: AUClast in Sprague-Dawley rat plasma at 3 mg/kg, sc measured upto 8 hrs by LC-MS/MS analysis; type: ADME, organism-based; set-up: dose 3 mg/kg, time < 8 hr, route subcutaneous
PROPERTY MEASURED: AUC(0-t) at 8 h (µM·h)
State just the number; it will be interpreted in µM·h.

STRUCTURE AS SMILES	READING UNIT	AUC(0-t) at 8 h
CC(C)[C@H]1CC[C@@H](N2CCC(n3cc(CN)c4ccccc43)CC2)CC1	µM·h	1
CC(C)[C@H]1CC[C@@H](N2CCC(N3CCc4ccccc43)CC2)CC1	µM·h	1.25

Could you tell me which AUC(0-t) at 8 h is on file for `CC(C)[C@H]1CC[C@@H](N2CCC(n3ccc4ccccc43)CC2)CC1` ?
1.96

* * *

assay: AUClast in Sprague-Dawley rat brain at 3 mg/kg, sc measured upto 8 hrs by LC-MS/MS analysis; type: ADME, organism-based; set-up: time < 8 hr, dose 3 mg/kg, route subcutaneous
PROPERTY MEASURED: AUC(0-t) at 8 h (µM·h)
State just the number; it will be interpreted in µM·h.

// known answers, use as guide
STRUCTURE AS SMILES	PROPERTY MEASURED	REPORTED RESULT
CC(C)[C@H]1CC[C@@H](N2CCC(n3ccc4ccccc43)CC2)CC1	AUC(0-t) at 8 h	10.1
CC(C)[C@H]1CC[C@@H](N2CCC(n3cc(CN)c4ccccc43)CC2)CC1	AUC(0-t) at 8 h	6.13

Could you tell me which AUC(0-t) at 8 h is on file for `CC(C)[C@H]1CC[C@@H](N2CCC(N3CCc4ccccc43)CC2)CC1` ?
6.7

* * *

test: Apparent permeability across basolateral to apical side in dog MDCK-MDR1 cells by HPLC-MS/MS analysis; assay type: ADME, cell-based, Canis lupus familiaris
PROPERTY MEASURED: Papp B→A

// known answers, use as guide
STRUCTURE AS SMILES	Papp B→A
CC(C)[C@H]1CC[C@@H](N2CCC(N3CCc4ccccc43)CC2)CC1	33.8 ×10⁻⁶ cm/s
CC(C)[C@H]1CC[C@@H](N2CCC(n3cc(CCN)c4ccccc43)CC2)CC1.Cl.Cl	22.1 ×10⁻⁶ cm/s
CC(C)[C@H]1CC[C@@H](N2CCC(n3cc(CN)c4ccccc43)CC2)CC1	14.4 ×10⁻⁶ cm/s

For the next question, use this compound.
Could you tell me which Papp B→A is on file for `CC(C)[C@H]1CC[C@@H](N2CCC(n3ccc4ccccc43)CC2)CC1` ?
15.2 ×10⁻⁶ cm/s

* * *

assay: Apparent permeability across apical to basolateral side in dog MDCK-MDR1 cells by HPLC-MS/MS analysis; type: ADME, cell-based, Canis lupus familiaris
Measured Papp A→B values are reported for all entries that follow.
State just the number; it will be interpreted in ×10⁻⁶ cm/s.

// known answers, use as guide
STRUCTURE AS SMILES	READING UNIT	REPORTED RESULT
CC(C)[C@H]1CC[C@@H](N2CCC(n3ccc4ccccc43)CC2)CC1	×10⁻⁶ cm/s	28.8
CC(C)[C@H]1CC[C@@H](N2CCC(n3cc(CN)c4ccccc43)CC2)CC1	×10⁻⁶ cm/s	0.34
CC(C)[C@H]1CC[C@@H](N2CCC(n3cc(CCN)c4ccccc43)CC2)CC1.Cl.Cl	×10⁻⁶ cm/s	0.6

For the next question, use this compound.
Could you tell me which Papp A→B is on file for `CC(C)[C@H]1CC[C@@H](N2CCC(N3CCc4ccccc43)CC2)CC1` ?
26.8

* * *

test: Tmax in Sprague-Dawley rat brain at 3 mg/kg, sc measured upto 8 hrs by LC-MS/MS analysis; type: ADME, organism-based
Measured Tmax values are reported for all entries that follow.
State just the number; it will be interpreted in min.

// known answers, use as guide
STRUCTURE AS SMILES	PROPERTY MEASURED	REPORTED RESULT
CC(C)[C@H]1CC[C@@H](N2CCC(n3cc(CN)c4ccccc43)CC2)CC1	Tmax	240
CC(C)[C@H]1CC[C@@H](N2CCC(N3CCc4ccccc43)CC2)CC1	Tmax	30

For the next question, use this compound.
Could you tell me which Tmax is on file for `CC(C)[C@H]1CC[C@@H](N2CCC(n3ccc4ccccc43)CC2)CC1` ?
30

* * *

experiment: Half life in Sprague-Dawley rat brain at 3 mg/kg, sc measured upto 8 hrs by LC-MS/MS analysis; type: ADME, organism-based
PROPERTY MEASURED: half-life (h)
State just the number; it will be interpreted in h.

// known answers, use as guide
STRUCTURE AS SMILES	PROPERTY MEASURED	READING UNIT	REPORTED RESULT
CC(C)[C@H]1CC[C@@H](N2CCC(n3cc(CN)c4ccccc43)CC2)CC1	half-life	h	10.8
CC(C)[C@H]1CC[C@@H](N2CCC(N3CCc4ccccc43)CC2)CC1	half-life	h	2.71

For the next question, use this compound.
Could you tell me which half-life is on file for `CC(C)[C@H]1CC[C@@H](N2CCC(n3ccc4ccccc43)CC2)CC1` ?
2.43

* * *

test: Stability in rat liver microsomes assessed as half life at 1 uM incubated for 60 mins by LC-MS/MS analysis; type: ADME, Microsome
Measured half-life at 1 µM values are reported for all entries that follow.

STRUCTURE AS SMILES	half-life at 1 µM
CC(C)[C@H]1CC[C@@H](N2CCC(n3ccc4ccccc43)CC2)CC1	5.8 min

Could you tell me which half-life at 1 µM is on file for `CC(C)[C@H]1CC[C@@H](N2CCC(n3cc(CN)c4ccccc43)CC2)CC1` ?
> 60 min

* * *

assay: Stability in mouse liver microsomes assessed as half life at 1 uM incubated for 60 mins by LC-MS/MS analysis; assay type: ADME, Microsome
PROPERTY MEASURED: half-life at 1 µM

STRUCTURE AS SMILES	half-life at 1 µM
CC(C)[C@H]1CC[C@@H](N2CCC(n3cc(CCN)c4ccccc43)CC2)CC1.Cl.Cl	> 60 min

For the next question, use this compound.
Could you tell me which half-life at 1 µM is on file for `CC(C)[C@H]1CC[C@@H](N2CCC(N3CCc4ccccc43)CC2)CC1` ?
2.8 min

* * *

assay: Cmax in Sprague-Dawley rat plasma at 3 mg/kg, sc measured upto 8 hrs by LC-MS/MS analysis; format: ADME, organism-based; design: dose 3 mg/kg, route subcutaneous
Measured Cmax values are reported for all entries that follow.
State just the number; it will be interpreted in nM.

// known answers, use as guide
STRUCTURE AS SMILES	READING UNIT	Cmax
CC(C)[C@H]1CC[C@@H](N2CCC(n3ccc4ccccc43)CC2)CC1	nM	626
CC(C)[C@H]1CC[C@@H](N2CCC(N3CCc4ccccc43)CC2)CC1	nM	456

Could you tell me which Cmax is on file for `CC(C)[C@H]1CC[C@@H](N2CCC(n3cc(CN)c4ccccc43)CC2)CC1` ?
529
